The entries below come with measured growth inhibition values attached.
# METHOD DESCRIPTION: NCI Yeast Anticancer Drug Screen. Data for the mlh1 strain (AID 171);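 further: 0% = growth of vehicle-treated control cultures of the same strain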
# RUN PARAMETERS: S. cerevisiae mlh1 strain growth inhibition; at 33.0 µM; hits give high values
Compounds without any hit were thinned out: in the full panel of roughly 79,000, 15% have a hit.
Give your result in % as a bare value.

Guide cases for growth inhibition, answers given:
> print(dat)
                                   compound      quantity.name  units.symbol  obs.value
1                 Cc1ccccc1N=Cc1cc(Cl)ccc1O  growth inhibition             %         22
2         c1ccc2cc(NCNc3ccc4ccccc4c3)ccc2c1  growth inhibition             %        -22
3  O=C1CSC(c2cccc(Cl)c2)N1c1ccc(-c2ccc(-n3c(-c4ccccc4)nc4ccccc4c3=O)cc2)cc1 (stereo unspecified)  growth inhibition             %         24
4            Nc1ccc2c(c1)C(=O)c1ccc(F)cc1-2  growth inhibition             %         13
5                     Cc1ccc(Sc2ccccc2N)cc1  growth inhibition             %         57

INPUT: Quick check: growth inhibition of COc1cc(/C=N/Nc2nnc3c4ccccc4c4ncccc4c3n2)cc(OC)c1OC ?
OUTPUT: 3

Source: PubChem BioAssay (NCI)
